The reported numbers originate from the nanobody polyreactivity screen of Harvey et al. (2022).

- assayRemarks: yeast display, Sf9 membrane polyspecificity reagent, FACS + sequencing; frameworks hold sequencing errors

sequenceText | polyreactivity (PSR sort gate)
QVQLVESGGGLVQAGGSLRLSSAASGRTFSGYAMGWYRQAPGKERELVASISGSGSSTYYADSVKGRFTISRDNAMNTVYLQMNSLKPEDTAVYYCAKRSFYYRIQTGYNYWGQGTQVTVSS | high polyreactivity
QVQLVESGGGLVQAGGSLRLSCAASGSIFRVYAMGWYRQAPGKERELVAAITRGGSTYADSVKGRFTISRDNAKNTVYLQMNSLKPEDTAVYYCAARVSYWGQGTQVTVSS | high polyreactivity
QVQLVESGGGLVQAGGSLRLSCAASGRIFYINTMGWYRQAPGKERELVAAISRRGGSTYYADSVKGRFTISRDNAKNTVYLQMNSLKPEDTAVYYCAARDQYGPGYRSESLDSWGQGTQVTVSS | low polyreactivity
QVQLVESGGGLVQAGGSLRLSCAASGSTFKAYAMGWYRQAPGKERELVAAITNSDGDTYYADSVKGRFTISRDNAKNTVYLQMNSLKAEDTAVYYCNALYFLKKLYDYWGQGTQVTVSS | low polyreactivity
QVQLVESGGGLVQAGGSLRLSCASSGITFGYYAMGWYRQAPGKESELGAARSGSGGSTYYADSVKGRFTISRDNAKNTVSLQMNSLKPEDTAVYDCAAEGPSNTLYWFSWEDYWGQGTQVTVSS | high polyreactivity
